Recorded viability at 48 h, 15.625 ug/ml, one value per entry.
# assay-overview: MTT cell viability assay on normal Vero cells (selectivity)
# Assay type: cell-based
# condition-parameters: African green monkey, Vero cells (normal kidney cells), 15.625 ug/ml
measurement-name: viability at 48 h, 15.625 ug/ml

- COc1cc(/C=C/C(=O)O)ccc1O: 100%
- O=C(O)/C=C/c1ccc(O)c(O)c1: 99.1%

Measured values drawn from paper PMC9571594 for this set.
